Cited source: patent USRE38257E1

system: male spontaneously hypertensive rats; assay: Decrease in systolic blood pressure in spontaneously hypertensive rats after intravenous bolus injection, indirect (tail-cuff) method; type: in vivo, rat; conditions: dose 10 mg/kg i.v. bolus, 0.5 hour after administration
Mark each entry YES if its Decrease in systolic blood pressure (mmHg) time after administration (hour) 0.5 sits below -100 mmHg, and NO for all others.

As a guide, the following entries are already answered.
sample.smiles: C1=Cc2ccccc2C(=C2CCN(CCCCC3CCOCC3)CC2)c2ccccc21.Cl
system.under.test: male spontaneously hypertensive rats
assigned.category: NO
//
sample.smiles: Cl.O=[N+]([O-])c1ccccc1S(=O)(=O)NCCN1CCC(=C2c3ccccc3C=Cc3ccccc32)CC1
system.under.test: male spontaneously hypertensive rats
assigned.category: NO
//
sample.smiles: C1=Cc2ccccc2C(=C2CCN(CCCc3ccccc3)CC2)c2ccccc21.Cl
system.under.test: male spontaneously hypertensive rats
assigned.category: YES
//
sample.smiles: Cl.O=C1Cc2ccccc2C(=C2CCN(CCCCC3CCCCC3)CC2)c2ccsc21
system.under.test: male spontaneously hypertensive rats
assigned.category: NO

# input for lookup
(Q) Please determine if `CCCCCCCCCCCCCCCCCCCN1CCC(=C2c3ccccc3C=Cc3ccccc32)CC1.Cl` is below -100 mmHg in terms of Decrease in systolic blood pressure (mmHg) time after administration (hour) 0.5.
(A) YES

---

system: male spontaneously hypertensive rats; test: Decrease in systolic blood pressure in spontaneously hypertensive rats after intravenous bolus injection, indirect (tail-cuff) method; type: in vivo, rat; conditions: dose 10 mg/kg i.v. bolus, 0.5 hour after administration
Listed molecules paired with reported Decrease in systolic blood pressure (mmHg) time after administration (hour) 0.5
Please respond with the number in mmHg and leave the unit unwritten.

Solved entries:
molecule: COc1ccc(C(=O)C(C)CCN2CCC(=C3c4ccccc4C=Cc4ccccc43)CC2)cc1OC.Cl (stereo not drawn) [Example 274]
numeric.readout: −102
--
molecule: C1=Cc2ccccc2C(=C2CCN(CCCOC3CCCCO3)CC2)c2ccccc21.Cl (stereo not drawn) [Example 235]
numeric.readout: −99

(Q) Please look up its Decrease in systolic blood pressure (mmHg) time after administration (hour) 0.5: COCC(=O)Oc1cccc(C=CCN2CCC(=C3c4ccccc4C=Cc4ccccc43)CC2)c1.Cl [Example 369]
(A) −101

---

Listed compounds paired with reported Decrease in systolic blood pressure (mmHg) time after administration (hour) 0.5
test system: male spontaneously hypertensive rats; assay: Decrease in systolic blood pressure in spontaneously hypertensive rats after intravenous bolus injection, indirect (tail-cuff) method; type: in vivo, rat; conditions: dose 10 mg/kg i.v. bolus, 0.5 hour after administration
Please respond with the number in mmHg and leave the unit unwritten.

Solved entries:
compound: Cl.OC1CCCC(CCCCN2CCC(=C3c4ccccc4C=Cc4ccccc43)CC2)C1 (stereo not shown)
result.unit: mmHg
numeric.readout: −97

compound: C1=Cc2ccccc2C(=C2CCN(CCCCCCCCC3CCCCC3)CC2)c2ccccc21.Cl
result.unit: mmHg
numeric.readout: −110

compound: COc1ccc(CCCCN2CCC(=C3c4ccccc4C=Cc4ccccc43)CC2)cc1OC.Cl
result.unit: mmHg
numeric.readout: −70

compound: COc1ccc(CCCCN2CCC(=C3c4ccccc4C=Cc4ccccc43)CC2)cc1NC(C)=O.Cl
result.unit: mmHg
numeric.readout: −72

compound: CCOC(=O)N1CCCC(CCCCN2CCC(=C3c4ccccc4C=Cc4ccccc43)CC2)C1.Cl (stereo not shown)
result.unit: mmHg
numeric.readout: −115

(Q) Please look up its Decrease in systolic blood pressure (mmHg) time after administration (hour) 0.5: Cl.N#CC(CCCN1CCC(=C2c3ccccc3C=Cc3ccccc32)CC1)c1cccc(C(F)(F)F)c1 (stereo not shown)
(A) −87

(Q) Please look up its Decrease in systolic blood pressure (mmHg) time after administration (hour) 0.5: CC(CC(=O)N1CCSCC1)N1CCC(=C2c3ccccc3C=Cc3ccccc32)CC1.Cl (stereo not shown)
(A) −34

(Q) Please look up its Decrease in systolic blood pressure (mmHg) time after administration (hour) 0.5: `Cl.O=C(CCCN1CCC(=C2c3ccccc3C=Cc3ccccc32)CC1)c1cccs1`
(A) −96

(Q) Please look up its Decrease in systolic blood pressure (mmHg) time after administration (hour) 0.5: `COC1=C(OC)CC2=CC=CC(CN3CCC(=C4c5ccccc5C=Cc5ccccc54)CC3)=CC2=C1.Cl`
(A) −104

(Q) Please look up its Decrease in systolic blood pressure (mmHg) time after administration (hour) 0.5: `Cl.Fc1ccccc1CN1CCC(=C2c3ccccc3C=Cc3ccccc32)CC1`
(A) −98

(Q) Please look up its Decrease in systolic blood pressure (mmHg) time after administration (hour) 0.5: `COc1ccc(CN2CCC(=C3c4ccccc4C=Cc4ccccc43)CC2)cc1.Cl`
(A) −34

(Q) Please look up its Decrease in systolic blood pressure (mmHg) time after administration (hour) 0.5: `COc1cccc(CCCN2CCC(=C3c4ccccc4C=Cc4ccccc43)CC2)c1OC.Cl`
(A) −134

(Q) Please look up its Decrease in systolic blood pressure (mmHg) time after administration (hour) 0.5: Cl.OC(CCCN1CCC(=C2c3ccccc3C=Cc3ccccc32)CC1)c1ccccc1 (stereo not shown)
(A) −89
